// IC50 collected for UniProt:P17706
VALUE_TYPE: IC50

CC1(C)CCc2cc(O)c(N3CC(=O)NS3(=O)=O)c(F)c2O1 > 100 nM
O=C1CC[C@@H](CN2CCc3cc(O)c(N4CC(=O)NS4(=O)=O)c(F)c3C2)N1 1 to 10 nM
CC(C)(CCN)CCN[C@@H]1CCc2cc(O)c(N3CC(=O)NS3(=O)=O)c(F)c2C1 1 to 10 nM
Cc1nn(C)c(C)c1CN1CCC(N2CCc3cc(O)c(N4CC(=O)NS4(=O)=O)c(F)c3C2)CC1 > 100 nM
Cc1nn(CCCC(C)(C)C#N)c(C)c1CN1CCc2cc(O)c(N3CC(=O)NS3(=O)=O)c(F)c2C1 > 100 nM
O=C1CN(c2c(O)cc3c(c2F)C[C@H](NCc2ccc(CO)o2)CC3)S(=O)(=O)N1 10 to 100 nM
O=C1CN(c2c(O)cc3c(c2F)CN(CCC2CCNCC2)CC3)S(=O)(=O)N1 > 100 nM
O=C1CN(c2c(O)cc3c(c2F)CN(CCN2CCNCC2)CC3)S(=O)(=O)N1 10 to 100 nM

* * *

// pIC50 collected for UniProt P17706
pIC50: −log10 of the molar value.
VALUE_TYPE: pIC50

COMPOUND	OBSERVED
NCC1(O)CCc2cc(O)c(N3CC(=O)NS3(=O)=O)c(F)c2C1 (centres unmarked)	7.00 to 8.00
COCCN1CCc2cc(O)c(N3CC(=O)NS3(=O)=O)c(F)c2C1	< 7.00
CC(C)CNC(=N)N1CCc2cc(O)c(N3CC(=O)NS3(=O)=O)c(F)c2C1	7.00 to 8.00
Cc1noc(C)c1CCN1Cc2c(cc(O)c(N3CC(=O)NS3(=O)=O)c2F)C(F)(F)C1	< 7.00
CC(C)CCN[C@@H]1CCc2c(F)c(O)c(N3CC(=O)NS3(=O)=O)c(F)c2C1	8.00 to 9.00
O=C1CN(c2c(O)cc3c(c2F)CN(CCCc2ccccc2F)CC3)S(=O)(=O)N1	8.00 to 9.00
COCCCN[C@@H]1CCc2cc(O)c(N3CC(=O)NS3(=O)=O)c(F)c2C1	8.00 to 9.00
CC(C)C(F)CNC1CCc2cc(O)c(N3CC(=O)NS3(=O)=O)c(F)c2C1 (centres unmarked)	8.00 to 9.00
CC(C)(C)c1ccc(CCCN2CCc3cc(O)c(N4CC(=O)NS4(=O)=O)c(F)c3C2)cc1	7.00 to 8.00
O=C1CN(c2c(O)cc3c(c2F)C[C@H](NCCCC(F)F)CO3)S(=O)(=O)N1	8.00 to 9.00
NC[C@H]1Cc2cc(O)c(N3CC(=O)NS3(=O)=O)c(F)c2C1 (single isomer, unassigned)	7.00 to 8.00
O=C1CN(c2c(O)cc3c(c2F)CN(CCCN2CCOCC2)CC3)S(=O)(=O)N1	7.00 to 8.00
Cc1nn(C(F)F)c(C)c1CCN1CCc2cc(O)c(N3CC(=O)NS3(=O)=O)c(F)c2C1	8.00 to 9.00
O=C1CN(c2c(O)cc3c(c2F)C[C@H](NCC2CC(c4ccccc4)C2)CO3)S(=O)(=O)N1 (some centres unmarked)	8.00 to 9.00
[2H]C1([2H])Cc2cc(O)c(N3CC(=O)NS3(=O)=O)c(F)c2C([2H])([2H])[C@@]1([2H])NCCC(C)C (single isomer, unassigned)	7.00 to 8.00
O=C1CN(c2c(O)cc3c(c2F)CNCC3)S(=O)(=O)N1	7.00 to 8.00
CCCCCN1CCc2cc(O)c(N3CC(=O)NS3(=O)=O)c(F)c2C1	7.00 to 8.00
O=C1CN(c2c(O)cc3c(c2F)CN(Cc2ccccn2)CC3)S(=O)(=O)N1	< 7.00
O=C1CN(c2c(O)cc3c(c2F)CN(CCC2CCOCC2)CC3)S(=O)(=O)N1	7.00 to 8.00
NC[C@H]1CCc2cc(O)c(N3CC(=O)NS3(=O)=O)c(F)c2C1	7.00 to 8.00
O=C1CN(c2c(O)cc3c(c2F)C[C@H](NCCC2CC(F)(F)C2)CC3)S(=O)(=O)N1	> 9.00
O=C1CN(c2c(O)cc3c(c2F)CC(NCc2ccccn2)CC3)S(=O)(=O)N1 (centres unmarked)	7.00 to 8.00
Cc1nn(C)c(C)c1CN1CCc2cc(O)c(N3CC(=O)NS3(=O)=O)c(F)c2C1	< 7.00
O=C1CN(c2c(O)cc3c(c2F)C[C@H](NCC2CC2(F)F)CC3)S(=O)(=O)N1 (some centres unmarked)	7.00 to 8.00
COCCCCN[C@@H]1CCc2cc(O)c(N3CC(=O)NS3(=O)=O)c(F)c2C1	8.00 to 9.00
CC(C)(C)OC(=O)N1CCc2cc(O)c(N3CC(=O)NS3(=O)=O)c(F)c2C1	7.00 to 8.00
Cc1noc(C)c1CCN1CCc2cc(O)c(N3CC(=O)NS3(=O)=O)c(F)c2C1	8.00 to 9.00
CC(C)CCCN1CCc2cc(O)c(N3CC(=O)NS3(=O)=O)c(F)c2C1	7.00 to 8.00
O=C1CN(c2c(O)cc3c(c2F)C[C@H](NCc2cccnn2)CC3)S(=O)(=O)N1	7.00 to 8.00
O=C1CN(c2c(O)cc3c(c2F)CN(CCC2CC(F)(F)C2)CC3)S(=O)(=O)N1	7.00 to 8.00
O=C1CN(c2c(O)cc3c(c2F)C[C@H](NCCCc2ccccc2)CO3)S(=O)(=O)N1	7.00 to 8.00
CC1(C)CCc2c(cc(O)c(N3CC(=O)NS3(=O)=O)c2F)O1	< 7.00

* * *

Target: His tagged PTPN2 (TC45) protein (Homo sapiens, UniProt P17706)
Construct: made in house
Sequence (P17706 with tags, fused parts or gaps isoform P17706-2): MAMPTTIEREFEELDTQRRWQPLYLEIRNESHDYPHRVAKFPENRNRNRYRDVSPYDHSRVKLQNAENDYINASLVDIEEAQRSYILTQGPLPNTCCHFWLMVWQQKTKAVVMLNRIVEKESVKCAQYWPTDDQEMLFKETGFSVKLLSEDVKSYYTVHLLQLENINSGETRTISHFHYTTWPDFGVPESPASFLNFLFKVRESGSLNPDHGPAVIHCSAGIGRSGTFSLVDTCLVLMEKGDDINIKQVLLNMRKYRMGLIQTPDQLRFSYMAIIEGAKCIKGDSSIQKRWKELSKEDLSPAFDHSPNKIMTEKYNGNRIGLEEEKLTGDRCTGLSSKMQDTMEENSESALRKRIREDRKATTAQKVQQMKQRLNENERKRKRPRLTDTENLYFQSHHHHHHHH
Experiment: Mobility shift assay (MSA) to determine potency of PTPN2 inhibitors
Type: biochemical
Conditions: 0.5 nM enzyme, 2 μM substrate
pIC50: −log10 of the molar value.

MOLECULE	pIC50
O=C1CN(c2c(O)cc3c(c2F)CN(CCCc2ccc(F)cc2)CC3)S(=O)(=O)N1 [Compound 299]	8.00 to 9.00
CC1=C(CCN[C@@H]2COc3cc(O)c(N4CC(=O)NS4(=O)=O)c(F)c3C2)C(C)(C)CCC1 [Compound 378]	7.00 to 8.00
N[C@@H]1CCc2cc(O)c(N3CC(=O)NS3(=O)=O)c(F)c2[C@H]1O [Compound 401]	< 7.00
COCCNC(=O)N1CCc2cc(O)c(N3CC(=O)NS3(=O)=O)c(F)c2C1 [Compound 282]	7.00 to 8.00
O=C1CN(c2c(O)cc3c(c2F)CN(CC2CNC2)CC3)S(=O)(=O)N1 [Compound 165]	7.00 to 8.00
COCC(C)(C)CNC(=O)N1CCc2cc(O)c(N3CC(=O)NS3(=O)=O)c(F)c2C1 [Compound 279]	7.00 to 8.00
O=C1CN(c2c(O)cc3c(c2F)C[C@H](NCC2CCCCO2)CC3)S(=O)(=O)N1 (some centres unmarked) [Compound 350]	8.00 to 9.00
O=C1CN(c2c(O)cc3c(c2F)CN(CCCc2cccnc2)CC3)S(=O)(=O)N1 [Compound 207]	7.00 to 8.00

* * *

target: His tagged full-length PTPN1 protein (Homo sapiens, UniProt P18031)
Sequence (P18031 with tags, fused parts or gaps): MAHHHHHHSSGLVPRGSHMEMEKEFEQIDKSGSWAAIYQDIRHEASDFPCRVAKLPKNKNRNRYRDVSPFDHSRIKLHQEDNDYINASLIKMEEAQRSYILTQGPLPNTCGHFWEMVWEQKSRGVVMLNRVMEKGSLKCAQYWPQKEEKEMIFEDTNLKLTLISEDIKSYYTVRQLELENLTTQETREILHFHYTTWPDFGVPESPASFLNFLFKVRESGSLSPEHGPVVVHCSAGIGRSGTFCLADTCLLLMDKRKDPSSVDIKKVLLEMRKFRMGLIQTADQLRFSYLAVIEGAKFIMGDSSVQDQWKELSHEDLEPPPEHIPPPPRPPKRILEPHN
VALUE_TYPE: IC50

COMPOUND	VALUE_TYPE	OBSERVED
O=C1CN(c2c(O)cc3c(c2F)C[C@@H](NCCC2CC2)CC3)S(=O)(=O)N1 (single isomer, unassigned)	IC50	10 to 100 nM
CCn1nc(C)c(CCN2CCc3cc(O)c(N4CC(=O)NS4(=O)=O)c(F)c3C2)c1C	IC50	1 to 10 nM
C[C@H]1C[C@@H](N)Cc2c1cc(O)c(N1CC(=O)NS1(=O)=O)c2F	IC50	10 to 100 nM
NCC1CCc2cc(O)c(N3CC(=O)NS3(=O)=O)c(F)c2C1 (stereo not shown)	IC50	10 to 100 nM
Cc1noc(C)c1CCN1CCc2cc(O)c(N3CC(=O)NS3(=O)=O)c(F)c2C1	IC50	1 to 10 nM
CC(C)CCN1CCc2cc(O)c(N3CC(=O)NS3(=O)=O)c(F)c2C1	IC50	10 to 100 nM
CC(C)CCCN1CCc2cc(O)c(N3CC(=O)NS3(=O)=O)c(F)c2C1	IC50	10 to 100 nM
CC(C)CCS(=O)(=O)NC1CCc2cc(O)c(N3CC(=O)NS3(=O)=O)c(F)c2C1 (stereo not shown)	IC50	10 to 100 nM
CO[C@H]1CCc2cc(O)c(N3CC(=O)NS3(=O)=O)c(F)c2C1 (single isomer, unassigned)	IC50	10 to 100 nM
CC(C)(CCN[C@H]1CCc2cc(O)c(N3CC(=O)NS3(=O)=O)c(F)c2C1)C(F)(F)F (single isomer, unassigned)	IC50	10 to 100 nM
CC(C)CCNC[C@@H]1Cc2cc(O)c(N3CC(=O)NS3(=O)=O)c(F)c2C1 (single isomer, unassigned)	IC50	1 to 10 nM
C[C@H]1Cc2c(cc(O)c(N3CC(=O)NS3(=O)=O)c2F)CN1	IC50	> 100 nM
COCCCCN1CCc2cc(O)c(N3CC(=O)NS3(=O)=O)c(F)c2C1	IC50	10 to 100 nM
CCCCN[C@@H]1CCc2cc(O)c(N3CC(=O)NS3(=O)=O)c(F)c2C1	IC50	1 to 10 nM
CC(C)NCCN1CCc2cc(O)c(N3CC(=O)NS3(=O)=O)c(F)c2C1	IC50	> 100 nM
CC(C)(CCN[C@@H]1CCc2cc(O)c(N3CC(=O)NS3(=O)=O)c(F)c2C1)C(F)(F)F (single isomer, unassigned)	IC50	1 to 10 nM
O=C1CN(c2c(O)cc3c(c2F)CC(CNCC2CCC2)CC3)S(=O)(=O)N1 (stereo not shown)	IC50	10 to 100 nM
O=C1CN(c2c(O)cc3c(c2F)CN(Cc2ccccn2)CC3)S(=O)(=O)N1	IC50	> 100 nM
Cc1nn(C)c(C)c1CN1CC2(CC(N3CCc4cc(O)c(N5CC(=O)NS5(=O)=O)c(F)c4C3)C2)C1	IC50	> 100 nM
O=C1CN(c2c(O)cc3c(c2F)CN(CCCN2CCOCC2)CC3)S(=O)(=O)N1	IC50	10 to 100 nM
O=C1CC[C@@H](CN2CCc3cc(O)c(N4CC(=O)NS4(=O)=O)c(F)c3C2)N1	IC50	10 to 100 nM
CC1(CCNC(=O)N2CCc3cc(O)c(N4CC(=O)NS4(=O)=O)c(F)c3C2)CC1	IC50	10 to 100 nM
C[C@@H](N)CN1CCc2cc(O)c(N3CC(=O)NS3(=O)=O)c(F)c2C1	IC50	10 to 100 nM
O=C1CN(c2c(O)cc3c(c2F)CN(C(=O)NCC2CCCCC2)CC3)S(=O)(=O)N1	IC50	1 to 10 nM
CC(O)CCN[C@@H]1CCc2cc(O)c(N3CC(=O)NS3(=O)=O)c(F)c2C1 (stereo partly shown)	IC50	10 to 100 nM
Cc1nn(C(F)F)c(C)c1CCN1CCc2cc(O)c(N3CC(=O)NS3(=O)=O)c(F)c2C1	IC50	1 to 10 nM
Cc1cc(CN[C@@H]2CCc3cc(O)c(N4CC(=O)NS4(=O)=O)c(F)c3C2)no1	IC50	10 to 100 nM
CC1(C)COC(CCCCN2CCc3cc(O)c(N4CC(=O)NS4(=O)=O)c(F)c3C2)OC1	IC50	> 100 nM
N#CC1CC1CN[C@@H]1CCc2cc(O)c(N3CC(=O)NS3(=O)=O)c(F)c2C1 (stereo partly shown)	IC50	10 to 100 nM
O=C1CN(c2c(O)cc3c(c2F)CN(C(=O)NCCc2ccccc2)CC3)S(=O)(=O)N1	IC50	10 to 100 nM
CC(C)CCCC1CCc2cc(O)c(N3CC(=O)NS3(=O)=O)c(F)c2C1 (stereo not shown)	IC50	1 to 10 nM
